// molecules with reported log10(IC50) on MAGL (Homo sapiens), multi-publication
Sequence (Q99685 whole entry, species assumed): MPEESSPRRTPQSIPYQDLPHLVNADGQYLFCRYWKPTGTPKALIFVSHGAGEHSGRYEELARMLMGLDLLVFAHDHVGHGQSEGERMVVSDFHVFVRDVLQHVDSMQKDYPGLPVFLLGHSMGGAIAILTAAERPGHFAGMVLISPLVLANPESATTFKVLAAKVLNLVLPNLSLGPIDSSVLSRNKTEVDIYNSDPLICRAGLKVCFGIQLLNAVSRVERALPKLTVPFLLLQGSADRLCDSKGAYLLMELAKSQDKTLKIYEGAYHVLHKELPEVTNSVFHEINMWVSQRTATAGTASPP
property: log10(IC50) (log10 of the value in nM)

O=C(c1ccccc1)N1CCN(C2CN(C(=O)c3ccc(Oc4cccc(C(F)(F)F)c4)nc3)C2)CC1	2.66
O=C1CO[C@H]2CCN(C(=O)N3CCC(c4ccn(-c5ccc(F)cc5)n4)CC3)C[C@H]2N1	2.17
O=C1CO[C@H]2CCN(C(=O)N3CC(c4ccc(Oc5ccc(OC(F)(F)F)cc5)nc4)C3)C[C@H]2N1	0.38
O=C(c1cc2ccc(Br)cc2[nH]1)N1CC(N2CCN(C(=O)c3nccs3)CC2)C1	3.16
O=C(c1nccs1)N1CCN(C2CN(C(=O)c3[nH]c4nc(C(F)(F)F)ccc4c3Br)C2)CC1	1.28
O=C1CO[C@H]2CCN(C(=O)N3CCC(C(c4ccccc4)c4cccc(OCCF)c4)CC3)C[C@H]2N1 (single isomer, unassigned)	-0.40
